Source: patent US5466698A

# MEASUREMENT_TARGET: [^3 H]Spiroperidol Binding (Rattus norvegicus, UniProt P61169)
# Sequence (P61169 whole entry): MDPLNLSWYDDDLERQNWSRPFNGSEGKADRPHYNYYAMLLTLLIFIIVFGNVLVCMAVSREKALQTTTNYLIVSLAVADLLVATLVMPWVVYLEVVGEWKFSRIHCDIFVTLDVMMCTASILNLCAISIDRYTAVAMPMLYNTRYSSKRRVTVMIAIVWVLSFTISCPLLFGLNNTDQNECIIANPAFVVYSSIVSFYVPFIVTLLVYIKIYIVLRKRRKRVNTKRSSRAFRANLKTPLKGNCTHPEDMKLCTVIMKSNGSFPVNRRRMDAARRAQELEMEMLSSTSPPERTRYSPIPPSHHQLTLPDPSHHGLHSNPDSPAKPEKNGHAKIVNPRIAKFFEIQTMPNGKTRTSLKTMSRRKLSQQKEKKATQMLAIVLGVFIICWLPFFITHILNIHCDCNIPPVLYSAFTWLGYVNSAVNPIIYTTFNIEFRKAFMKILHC
# TEST_NAME: Inhibition of [^3 H]Spiroperidol Binding, receptor assay
# ASSAY_CONDITIONS: read-out: Inhibition of [^3 H]Spiroperidol Binding IC50; [^3 H]spiroperidol radioligand
OBSERVABLE: pIC50
Answers are plain numbers, as −log10 of the molar value.

For the compound `CNc1ccc(C#CCCN2CC=C(c3ccc(F)cc3)CC2)cn1` , report pIC50.
5.90

---

Task for the reader: assign each of the following compounds its reported pIC50.
# MEASUREMENT_TARGET: [^3 H]Spiroperidol Binding (Rattus norvegicus, UniProt P61169)
# TEST_NAME: Inhibition of [^3 H]Spiroperidol Binding, receptor assay
Give bare numbers, as −log10 of the molar value.

Some solved entries appear below for comparison.
# ITEM_SMILES, pIC50
rows = [
    ("Nc1ccc(C#CCCN2CC=C(c3cccs3)CC2)nc1", 6.49),
    ("CC(=O)Nc1ccc(C#CCCN2CC=C(c3ccccc3)CC2)nc1", 7.15),
    ("O=[N+]([O-])c1ccc(C#CCCN2CC=C(c3ccccc3)CC2)nc1", 6.64),
    ("Nc1ccc(C#CCCN2CC=C(c3ccccc3)CC2)cc1", 6.37),
    ("Nc1ccc(C#CCCN2CC=C(c3ccccc3)CC2)nc1", 7.07),
    ("Nc1ccc(C#CCCN2CC=C(c3ccc(F)cc3)CC2)cn1", 6.42),
    ("C(#Cc1cccnc1)CCCN1CC=C(c2cccs2)CC1", 6.68),
]

Next compound, please.
Hello, please tell me recorded pIC50 for this one: `CNc1ccc(C#CCCN2CC=C(c3ccccc3)CC2)cn1`
7.11
